This collection of values is drawn from patent US20170049842A1.

Assay: Permeability coefficient (Papp) across Caco-2 cell monolayers in Ussing Chamber
Details: Caco-2
Peptide text beside a SMILES is read from it.
EXPERIMENTAL_ENDPOINT: Papp A→B (×10⁻⁶ cm/s)

[
  {
    "COMPOUND": "N[C@@H](Cc1ccc(O)cc1)C(=O)N1CCC[C@H]1C(=O)O [E, Tyr-Pro] (H-Tyr-Pro-OH; N-terminus and C-terminus assumed)",
    "OBSERVED_MEASUREMENT": 0.885
  }
]

[P] N[C@@H](Cc1ccc(O)cc1)C(=O)N[C@@H](CO)C(=O)O [D, Tyr-Ser] (H-Tyr-Ser-OH; N-terminus and C-terminus assumed)
[Q] N[C@@H](CO)C(=O)N[C@@H](Cc1ccc(O)cc1)C(=O)O [A, Ser-Tyr] (H-Ser-Tyr-OH; N-terminus and C-terminus assumed)
[R] CC[C@H](C)[C@H](N)C(=O)N[C@@H](Cc1ccc(O)cc1)C(=O)O [H, Ile-Tyr] (H-Ile-Tyr-OH; N-terminus and C-terminus assumed)
[S] NC(=O)C[C@H](NC(=O)[C@@H](N)Cc1ccc(O)cc1)C(=O)O [F, Tyr-Asn] (H-Tyr-Asn-OH; N-terminus and C-terminus assumed)
[Q] rank_up(items): orders items by reported Papp A→B in ascending numerical order. State the ranking by listing the labels in the requested order.
[A] S, P, Q, R
